Listing of entries alongside the reported pEC50.
measurementTarget: T1, CD73 on the surface of human tumor cells (human, UniProt P21589 27-549)
T1 chain: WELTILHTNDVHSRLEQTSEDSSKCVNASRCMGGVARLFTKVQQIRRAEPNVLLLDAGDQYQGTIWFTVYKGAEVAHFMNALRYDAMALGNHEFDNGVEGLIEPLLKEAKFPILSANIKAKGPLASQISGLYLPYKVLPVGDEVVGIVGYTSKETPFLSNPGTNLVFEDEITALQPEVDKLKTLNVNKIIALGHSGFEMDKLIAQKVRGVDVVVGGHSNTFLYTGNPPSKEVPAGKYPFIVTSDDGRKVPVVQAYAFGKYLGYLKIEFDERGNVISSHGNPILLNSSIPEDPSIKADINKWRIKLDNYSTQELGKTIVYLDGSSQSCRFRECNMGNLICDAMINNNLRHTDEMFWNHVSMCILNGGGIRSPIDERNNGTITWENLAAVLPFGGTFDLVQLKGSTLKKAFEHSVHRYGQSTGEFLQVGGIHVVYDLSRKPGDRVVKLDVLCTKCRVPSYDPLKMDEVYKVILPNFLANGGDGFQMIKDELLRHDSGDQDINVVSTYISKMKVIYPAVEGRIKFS
assayMethodText: FACS; MDA-MB-231 cells, left table
Schema: pEC50 number; meaning minus log10 of the concentration expressed in molar units.

binder	measValue
mAb001c (antibody, V domains shown) VH: QVQLQQSGPELVKPGASVRISCKTSGYTFTNYYIYWVKQRPGQGLEWIGWIYPGNLNIKYNEKFKGKSTLTADKSSSTAFMQLSSLTSEDSAVYFCARDDNYAWFAYWGQGTLVTVSS VL: DIVMTQSHKFMSTSIGDRVSITCKASQDVSTAVAWYQQKPGQSPKLLIYWTNTRHTGVPDRFTGNTSGTEHTLTISSVQAEDLALYYCQQHYSTPFTFGSGTTLEIK	9.35

Return reported pEC50. Input binder: Hu001c-25 (antibody, V domains shown) VH: QVQLVQSGAEVKKPGASVKVSCKASGYTFTNYYIYWVRQAPGQRLEWIGWIYPGNLNIKYNEKFKGRVTITADKSASTAYMELSSLRSEDTAVYYCARDDNYAWFAYWGQGTLVTVSS VL: DIQMTQSPSSLSASVGDRVTITCKASQDVSTAVAWYQQKPGKSPKLLIYWTNTRHTGVPSRFSGSGSGTDHTLTISSLQPEDFATYYCQQHYSTPFTFGQGTKLEIK
9.36
